tested on: 786-0 renal; test: NCI-60 one-dose screen, 48 h (100 = growth as untreated, 0 = no growth, -100 = all killed); settings: 10 µM unless noted
This is part of a sample that, as a whole, favours compounds with a hit. Of some 83,000 tested, about 20% had one in any assay. Activity calls are given as the source filed them. How the source made its calls: active means growth percent below 10; inactive means the rest.
measured.attribute: growth

compound=NC(N)=Nc1ccc(Oc2cccc(NC(N)=Nc3ccc(Br)cc3)c2)cn1 measured_attribute=growth observed_measurement="68.7% (inactive)"
compound=COc1ccc(NC2=C(Cl)C(=O)c3nc(C)ccc3C2=O)cc1OC measured_attribute=growth observed_measurement="99% (inactive)"
compound=COc1cc(-c2nn(C(C)(C)C)cc2-c2ccnc(NCCCNS(=O)(=O)c3cccc(F)c3)n2)ccc1Cl measured_attribute=growth observed_measurement="69.7% (inactive)"
compound=CCc1cccc(NC(=O)CNc2cc(S(=O)(=O)N(C)C)cc(C)c2C)c1 measured_attribute=growth observed_measurement="85.2% (inactive)"
compound=COc1ccc(S(=O)(=O)NCCCNc2nccc(-c3cn(C(C)(C)C)nc3-c3ccc(Cl)c(OC)c3)n2)cc1 measured_attribute=growth observed_measurement="79.7% (inactive)"
compound="C=C(C=O)[C@@H]1CC[C@]2(COC(C)=O)CC[C@]3(C)C(CC[C@@H]4[C@@]5(C)CC[C@H](OC(C)=O)C(C)(C)[C@@H]5CC[C@]43C)[C@@H]12 (some centres undefined)" measured_attribute=growth observed_measurement="2.99% (active)"
compound=COc1cc(OC)c(S(N)(=O)=O)cc1C(C)=O measured_attribute=growth observed_measurement="101% (inactive)"
compound=COc1ccc2[nH]cc(-c3csc4nc(-c5ccccc5)cn34)c2c1 measured_attribute=growth observed_measurement="51.6% (inactive)"
compound=O=C(CN1CCN(c2cc(=O)[nH]c3ccc(F)cc23)CC1)Nc1ccc(Cl)cc1 measured_attribute=growth observed_measurement="36.3% (inactive)"
compound=Clc1cccc(/C=N/Nc2nc(N/N=C/c3cccc(Cl)c3Cl)nc(N3CCCCC3)n2)c1Cl measured_attribute=growth observed_measurement="102% (inactive)"
compound="CC(=O)N1N=C(c2cccc(-n3cccc3)c2)CC1c1cccc(F)c1 (centres undefined)" measured_attribute=growth observed_measurement="102% (inactive)"
compound=CS(=O)(=O)Nc1cc(-c2ccc3ncc(C#N)c(NCc4cccc(F)c4)c3c2)cnc1Cl measured_attribute=growth observed_measurement="10.8% (inactive)"
compound=Nc1ncc(-c2ccc(NS(=O)(=O)c3ccc(Cl)c(Cl)c3)cc2)[nH]1 measured_attribute=growth observed_measurement="93.8% (inactive)"
compound=COc1ccc(-n2c(SCc3n[nH]c(=S)o3)nc3ccc(Cl)cc3c2=O)cc1 measured_attribute=growth observed_measurement="94.1% (inactive)"
compound=O=C(CN1CCN(c2cc(=O)n(-c3ccccc3)c3ccccc23)CC1)Nc1ccc(F)cc1 measured_attribute=growth observed_measurement="81.9% (inactive)"
compound=O=C(Nc1ccc(N=Cc2c(O)[nH]c3ccccc23)cc1)Nc1nccs1 measured_attribute=growth observed_measurement="52.9% (inactive)"
compound=O=C(CSc1nnc(-c2ccc3nc(-c4ccccc4)[nH]c3c2)o1)Nc1ccc(C(=O)/C=C/c2ccccc2)cc1 measured_attribute=growth observed_measurement="102% (inactive)"
compound=Cn1ccnc1C(=O)/C=C/c1ccc(NC(=O)c2c(F)c(F)c(F)c(F)c2F)cc1 measured_attribute=growth observed_measurement="101% (inactive)"
compound=CC(C)(C)c1ccc(C(=O)Nc2sc3c(c2C(N)=O)CC/C(=N\O)C3)cc1 measured_attribute=growth observed_measurement="27.5% (inactive)"
